Test system: Amblyomma hebraeum
Assay: Amblyomma hebraeum test (tick nymphs, immersion)
Format: in vivo
Conditions: application rate 100 ppm; tick nymphs immersed for one minute; kill after 42 days
Task for the reader: assign each of the following compounds its reported efficacy.
One number for each entry, in %.

- SMILES_TEXT: "O=C(NC1CC1)c1cc(-c2cnn(-c3c(Cl)cc(C(F)(C(F)(F)F)C(F)(F)F)cc3OC(F)(F)F)c2)ccc1Cl"
  UNIT_SPEC: "%"
  efficacy: 100
- SMILES_TEXT: "O=C(NC1CC1)c1cc(-c2cnn(-c3c(Cl)cc(C(F)(F)F)cc3Cl)c2)cnc1Cl"
  UNIT_SPEC: "%"
  efficacy: 100
- SMILES_TEXT: "CCc1cc(C(F)(C(F)(F)F)C(F)(F)F)cc(C)c1-n1cc(-c2cnc(Cl)c(C(=O)NC3CC3)c2)cn1"
  UNIT_SPEC: "%"
  efficacy: 100
- SMILES_TEXT: "O=C(NC1CC1)c1cc(-c2cnn(-c3c(Cl)cc(C(F)(C(F)(F)F)C(F)(F)F)cc3Cl)c2)cnc1Cl"
  UNIT_SPEC: "%"
  efficacy: 100
- SMILES_TEXT: "CCc1cc(C(F)(C(F)(F)F)C(F)(F)F)ccc1-n1cc(-c2cnc(Cl)c(C(=O)NC3CC3)c2)cn1"
  UNIT_SPEC: "%"
  efficacy: 100
- SMILES_TEXT: "CN(C(=O)c1cc(-c2cnn(-c3c(Cl)cc(C(F)(C(F)(F)F)C(F)(F)F)cc3Cl)c2)cnc1Cl)C1(C#N)CC1"
  UNIT_SPEC: "%"
  efficacy: 90

Turning to the following compound.
-- ask Report efficacy, nothing else, for this compound: "Cc1cc(C(F)(C(F)(F)F)C(F)(F)F)cc(C(F)(F)F)c1-n1cc(-c2cnc(C)c(C(=O)N(C)C3(C#N)CC3)c2)cn1"
-- reply 80

----------
Tested on: Amblyomma hebraeum
Assay: Amblyomma hebraeum test (tick nymphs, immersion)
Assay type: in vivo
Conditions: application rate 100 ppm; tick nymphs immersed for one minute; kill after 42 days
Procedure: Solvent: dimethyl sulphoxide To produce an appropriate active ingredient formulation, 10 mg of active ingredient are mixed with 0.5 ml of dimethyl sulphoxide, and the concentrate is diluted with water to the desired concentration. Tick nymphs (Amblyomma hebraeum) are placed into perforated plastic beakers and immersed in the desired concentration for one minute. […] After 42 days, the kill in % is determined. […]
MEASUREMENT_KIND: efficacy (%)
One number for each entry, in %.

- SMILES_TEXT: "Cc1cc(C(F)(C(F)(F)F)C(F)(F)F)cc(C)c1-n1cc(-c2cnc(Cl)c(C(=O)N(C)C3CC3)c2)cn1"
  efficacy [%]: 95
- SMILES_TEXT: "Cc1cc(C(F)(C(F)(F)F)C(F)(F)F)cc(C(F)(F)F)c1-n1cc(-c2cnc(Cl)c(C(=O)N(C)C3(C#N)CC3)c2)cn1"
  efficacy [%]: 80
- SMILES_TEXT: "Cc1cc(C(F)(C(F)(F)F)C(F)(F)F)cc(C(F)(F)F)c1-n1cc(-c2cnc(C)c(C(=O)NC3(C#N)CC3)c2)cn1"
  efficacy [%]: 100

Shift focus to the following entry.
-- ask Give me measured efficacy, please, for this molecule: "Cc1cc(C(F)(C(F)(F)F)C(F)(F)F)cc(C)c1-c1cc(-c2ccc(Cl)c(C(=O)NC3(C#N)CC3)c2)on1"
-- reply 100

----------
Assay: logP determination by HPLC on a reversed-phase column (C18), EEC Directive 79/831 Annex V.A8
Type: physicochemical
Conditions: HPLC on reversed-phase column (C18)
For each entry below, report its log P value.
One number for each entry.

- SMILES_TEXT: "CN(C(=O)c1cc(-c2cnn(-c3c(Cl)cc(C(F)(C(F)(F)F)C(F)(F)F)cc3C#N)c2)cnc1Cl)C1CC1"
  log P: 3.9

List log P for every entry below, keeping the order given.
1. CN(C(=O)c1cc(-c2cnn(-c3c(I)cc(C(F)(C(F)(F)F)C(F)(F)F)cc3OC(F)(F)F)c2)ccc1Cl)C1CC1
2. N#CC1(NC(=O)c2cc(-c3cnn(-c4c(F)c(F)c(C(F)(F)F)c(F)c4F)c3)ccc2Cl)CC1
3. CN(C(=O)c1cc(-c2cnn(-c3c(Cl)cc(C(F)(C(F)(F)F)C(F)(F)F)cc3OC(F)(F)F)c2)ccc1Cl)C1CC1
4. CCSc1cc(C(F)(C(F)(F)F)C(F)(F)F)cc(SCC)c1-n1cc(-c2ccc(Cl)c(C(=O)NC3(C#N)CC3)c2)cn1
5. O=C(NC1CC1)c1cc(-c2cnn(-c3c(Cl)cc(C(O)(C(F)(F)F)C(F)(F)F)cc3Cl)c2)cnc1Cl
6. O=C(NC1CC1)c1cc(-c2cnn(-c3c(Cl)cc(C(F)(C(F)(F)F)C(F)(F)F)cc3OC(F)F)c2)cnc1Cl

-- reply
1: 5.2; 2: 3.4; 3: 5.1; 4: 4.7; 5: 3.0; 6: 3.9

----------
Field: log P. Provide a value for each of the molecules that follow.
Experiment: logP determination by HPLC on a reversed-phase column (C18), EEC Directive 79/831 Annex V.A8
Type: physicochemical
Details: HPLC-MS, reversed-phase column (C18)
One number for each entry.

Please review the following examples before continuing.
- SMILES_TEXT: "Cc1cc(C(F)(C(F)(F)F)C(F)(F)F)cc(C)c1-n1cc(-c2cnc(C3CC3)c(C(=O)NC3(C#N)CC3)c2)cn1"
  log P: 4.1
- SMILES_TEXT: "Cc1cc(C(F)(C(F)(F)F)C(F)(F)F)cc(C(F)(F)F)c1-n1cc(-c2cnc(C)c(C(=O)NC3CC3)c2)cn1"
  log P: 3.5
- SMILES_TEXT: "N#CC1(NC(=O)c2cc(-c3cnn(-c4c(Cl)cc(C(F)(C(F)(F)F)C(F)(F)F)cc4OC(F)(F)F)c3)ccc2Cl)CC1"
  log P: 4.5

Look at each molecule and report its log P.
1. N#CC1(NC(=O)c2cc(-c3cnn(-c4c(Br)cc(C(F)(C(F)(F)F)C(F)(F)F)cc4C(F)(F)F)c3)cnc2Cl)CC1
2. Cc1ncc(-c2cnn(-c3c(Cl)cc(C(F)(C(F)(F)F)C(F)(F)F)cc3Cl)c2)cc1C(=O)N(C)C1CC1
3. Cc1ncc(-c2cnn(-c3c(Cl)cc(C(F)(F)F)cc3Cl)c2)cc1C(=O)NC1CC1
4. Cc1ncc(-c2cnn(-c3c(Cl)cc(C(F)(F)F)cc3Cl)c2)cc1C(=O)N(C)C1(C#N)CC1
5. O=C(NC1CC1)c1cc(-c2cnn(-c3c(Cl)cc(C(F)(C(F)(F)F)C(F)(F)F)cc3C(F)(F)F)c2)cnc1Cl
6. Cc1cc(C(F)(C(F)(F)F)C(F)(F)F)cc(C)c1-n1cc(-c2cnc(C)c(C(=O)N(C)C3CC3)c2)cn1

-- reply
[3.9, 3.7, 2.5, 2.9, 4.0, 3.6]

Below are 7 molecules. Give each one its log P.
1. CCN(C(=O)c1cc(-c2cnn(-c3c(Cl)cc(C(F)(F)F)cc3Cl)c2)cnc1Cl)C1CC1
2. Cc1cc(C(F)(C(F)(F)F)C(F)(F)F)cc(C(F)(F)F)c1-n1cc(-c2cnc(Cl)c(C(=O)NC3CC3)c2)cn1
3. N#CC1(NC(=O)c2cc(-c3cnn(-c4c(Cl)cc(C(F)(C(F)(F)F)C(F)(F)F)cc4C(F)(F)F)c3)cnc2Cl)CC1
4. O=C(NC1CC1)c1cc(-c2cnn(-c3c(Cl)cc(C(F)(C(F)(F)F)C(F)(F)F)cc3OC(F)(F)F)c2)ccc1Cl
5. COc1ncc(-c2cnn(-c3c(C)cc(C(F)(C(F)(F)F)C(F)(F)F)cc3C)c2)cc1C(=O)N(C)C1CC1
6. CN(C(=O)c1cc(-c2cnn(-c3c(Cl)cc(C(F)(C(F)(F)F)C(F)(F)F)cc3C(F)(F)F)c2)cnc1Cl)C1CC1
7. Cc1cc(C(F)(C(F)(F)F)C(F)(F)F)cc(I)c1-n1cc(-c2ccc(Cl)c(C(=O)NC3(C#N)CC3)c2)cn1

-- reply
1. 3.8
2. 4.0
3. 4.0
4. 4.6
5. 4.4
6. 4.0
7. 4.4

Return reported log P values for all items listed beneath this line.
1. N#CC1(NC(=O)c2cc(-c3cnn(-c4ncc(C(F)(C(F)(F)F)C(F)(F)F)cc4Cl)c3)ccc2Cl)CC1
2. Cc1cc(C(F)(C(F)(F)F)C(F)(F)F)cc(C(F)(F)F)c1-n1cc(-c2cnc(Cl)c(C(=O)N(C)C3(C#N)CC3)c2)cn1
3. Cc1cc(C(F)(C(F)(F)F)C(F)(F)F)cc(C(F)(F)F)c1-n1cc(-c2cnc(C)c(C(=O)NC3(C#N)CC3)c2)cn1
4. O=C(NC1CC1)c1cc(-c2cnn(-c3c(Cl)cc(C(F)(F)F)cc3Cl)c2)cnc1Cl

-- reply
1: 4.0; 2: 4.4; 3: 3.6; 4: 3.1
